What growth inhibition was measured for each of the following?
Assay Info: NCI Yeast Anticancer Drug Screen. Data for the mlh1 rad18 strain (AID 175)
Settings: S. cerevisiae mlh1 rad18 strain growth inhibition; at 5.0 µM (retest, dose inferred, filed as 0.5); hits give high values
The panel holds about 79,000 compounds, 15% with a hit somewhere; the sample as a whole holds those more often.
Provide the reading as a plain figure in %.

So, COc1cc(F)ccn1 ? Its growth inhibition was -4

Looking up O=C(O)c1nc2cc(C(F)(F)F)ccc2nc1Nc1ccc(F)cc1 , I see its growth inhibition listed as 30

Just so you know, measured growth inhibition for CC1(Cc2ccccc2)CCCC(C=O)C1=O.[Cu+2] (stereo not given) came out at 0

Item: COc1cc(C2C(C(=O)Nc3ccc(Cl)c(Cl)c3)=C(C)NC(C)=C2C(=O)Nc2ccc(Cl)c(Cl)c2)ccc1O | growth inhibition: 8

growth inhibition in this record for CC(=O)Nc1ccc(-c2nnc(SCC(=O)Nc3ccc([N+](=O)[O-])cc3)o2)cc1 : 5
